These measurements were taken from ChEMBL document CHEMBL4371012.

# assay.notes: Cmax in ICR mouse at 25 mg/kg, po via gavage by LC-MS/MS analysis
# Type: ADME, organism-based
# Parameters: dose 25 mg/kg, route oral
# assay.conditions: in vivo
quantity.name: Cmax (µg/mL)

INSERT INTO assay_data (smiles_text, quantity_name, observed_measurement) VALUES
  ('COC[C@@H]1NC(=O)c2ccnn2CCCCCCOC[C@@H](C(=O)N[C@@H](Cc2ccccc2)C(=O)[C@@]2(C)CO2)NC1=O', 'Cmax', 0.325);

P. COC[C@@H]1NC(=O)c2ccccc2OCCCCCCOC[C@@H](C(=O)N[C@@H](Cc2ccccc2)C(=O)[C@@]2(C)CO2)NC1=O
Q. COC[C@H](NC(=O)c1cnc(C)s1)C(=O)N[C@@H](COC)C(=O)N[C@@H](Cc1ccccc1)C(=O)[C@@]1(C)CO1
[ask] Higher Cmax between P and Q ? Answer by quoting the chosen item's label.
[reply] P
